- ASSAYED TARGET: cMLCK (Homo sapiens)
- Construct: BTN (vendor prefix; by own knowledge, biotinylated); purchased Carna Bioscience #02-460-20N
- PROTOCOL DETAILS: cMLCK activity, ADP-Glo kinase assay
- Format: biochemical
- COND: ADP-Glo kinase assay; relative to Synthesis Example 1 (LEU-0992)
QUANTITY MEASURED: cMLCK activity compared with the compound of Synthesis Example 1

In [3]: df
Out[3]:
                                   molecule  recorded_result
0  COc1ccc(C(NC(C)=O)c2cc([N+](=O)[O-])c3cccnc3c2O)cc1 (centres unmarked)           weaker
1  CCCCC(=O)NC(c1ccc(OC)cc1)c1ccc2cccnc2c1O (centres unmarked)           weaker
2  Oc1c(C(Nc2ccccn2)c2cccnc2)cc(Cl)c2cccnc12 (centres unmarked)           weaker
3  Oc1ccccc1C(Nc1nccs1)c1ccc2cccnc2c1O (centres unmarked)           weaker
